# assay_target: MBP-APO1 mXT (dimeric form) M46A;R48S;I80T;W121A;L173A;W199A;F205A;del1-14 (human)
# protocol: EMSA
# conditions_used: no A1CF; dimeric form; 50 nM nucleic acid, 20 mM HEPES, 50 mM NaCl, 5 mM DTT, 10% glycerol (0.4 U RNase inhibitor for RNA), pH not stated for EMSA (HEPES pH 7.5 in protein buffers) …
reported_property: Kd
Hi, when you answer, please include the unit after the number. Thanks!

What the record says about GGAUAUAUGAUACAAUUUGAUCAGUAUAUUAAAGAUAGUUAUGAUUUACAUGAUU [APOB RNA 55 nt] : Kd is 0.14 µM

* * *

# assay_target: MBP-APO1 mXT (aggregated form) M46A;R48S;I80T;W121A;L173A;W199A;F205A;del1-14 (human) (UniProt P41238)
# protocol: EMSA
# conditions_used: no A1CF; aggregated form; weaker than WT; 50 nM nucleic acid, 20 mM HEPES, 50 mM NaCl, 5 mM DTT, 10% glycerol (0.4 U RNase inhibitor for RNA), pH not stated for EMSA (HEPES pH 7.5 in protein buffers) …
reported_property: Kd (nM)
Enter your answer as a number in nM; do not include the unit.

What the record says about GGAUAUAUGAUACAAUUUGAUCAGUAUAUUAAAGAUAGUUAUGAUUUACAUGAUU [APOB RNA 55 nt] : Kd is 460
